IC50 tested on Glycogen synthase kinase-3 alpha (Homo sapiens, UniProt P49840): recorded values
Sequence (P49840 whole entry): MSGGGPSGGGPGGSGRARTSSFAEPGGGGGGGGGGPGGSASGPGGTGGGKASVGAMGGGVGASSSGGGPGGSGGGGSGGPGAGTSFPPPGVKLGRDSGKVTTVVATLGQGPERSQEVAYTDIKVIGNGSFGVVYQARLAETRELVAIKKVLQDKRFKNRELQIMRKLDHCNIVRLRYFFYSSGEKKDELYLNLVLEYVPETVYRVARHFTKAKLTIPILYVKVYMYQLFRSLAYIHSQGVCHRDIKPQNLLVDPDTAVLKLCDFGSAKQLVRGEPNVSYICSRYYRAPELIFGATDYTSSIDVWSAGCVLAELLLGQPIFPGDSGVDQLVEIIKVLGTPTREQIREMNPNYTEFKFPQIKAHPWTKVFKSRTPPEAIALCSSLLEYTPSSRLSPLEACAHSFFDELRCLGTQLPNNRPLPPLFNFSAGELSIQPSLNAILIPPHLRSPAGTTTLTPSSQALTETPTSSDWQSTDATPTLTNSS

Answered examples (3):
CCC1(c2cccc(-c3cnn(C)c3)c2)C2=C(CC(C)(C)NC2=O)NC2N=NC(C(F)(F)F)=C21 (stereo not drawn): < 100 nM
CCC1(c2cccc(S(=O)(=O)C(C)C)c2)C2=C(CC(C)(C)NC2=O)NC2N=NC(C)=C21 (stereo not drawn): < 100 nM
CCC1(c2cccc(-c3cc(C)ncc3C)c2)C2=C(CC(C)(C)CC2=O)NC2N=NC(C)=C21 (stereo not drawn): < 100 nM

Provide the documented IC50 with Glycogen synthase kinase-3 alpha (Homo sapiens, UniProt P49840) as the system for CC[C@]1(c2cccc(Cc3ncccn3)c2)C2=CN=NC2NC2=C1C(=O)CC(C)(C)C2 (stereo partly drawn)
< 100 nM

Provide the documented IC50 with Glycogen synthase kinase-3 alpha (Homo sapiens, UniProt P49840) as the system for CC1(C)CC(=O)C2=C(C1)NC1=C(CN=N1)C21COC2(CN(C(=O)Cc3ccccc3)C2)C1 (stereo not drawn)
< 100 nM

Provide the documented IC50 with Glycogen synthase kinase-3 alpha (Homo sapiens, UniProt P49840) as the system for CCn1nccc1S(=O)(=O)N1CCC2(CC1)C1=C(N=NC1)NC1=C2C(=O)CC(C)(C)C1
< 100 nM

Provide the documented IC50 with Glycogen synthase kinase-3 alpha (Homo sapiens, UniProt P49840) as the system for CC[C@]1(c2cccc(C(F)(F)F)c2)C2=CN=NC2NC2=C1C(=O)N(c1cnc(OC)nc1)[C@@H](C)C2 (stereo partly drawn) [US20250313563, Compound 949354]
100 to 1000 nM

Provide the documented IC50 with Glycogen synthase kinase-3 alpha (Homo sapiens, UniProt P49840) as the system for CC(C)c1nc(S(=O)(=O)N2CCC3(CC2)C2=C(N=NC2)NC2=C3C(=O)CC(C)(C)C2)cn1C
< 100 nM

---

Measured pIC50, listed per entry for reference.
- system: Glycogen synthase kinase-3 beta (Homo sapiens, UniProt P49841)
- Sequence (P49841 whole entry): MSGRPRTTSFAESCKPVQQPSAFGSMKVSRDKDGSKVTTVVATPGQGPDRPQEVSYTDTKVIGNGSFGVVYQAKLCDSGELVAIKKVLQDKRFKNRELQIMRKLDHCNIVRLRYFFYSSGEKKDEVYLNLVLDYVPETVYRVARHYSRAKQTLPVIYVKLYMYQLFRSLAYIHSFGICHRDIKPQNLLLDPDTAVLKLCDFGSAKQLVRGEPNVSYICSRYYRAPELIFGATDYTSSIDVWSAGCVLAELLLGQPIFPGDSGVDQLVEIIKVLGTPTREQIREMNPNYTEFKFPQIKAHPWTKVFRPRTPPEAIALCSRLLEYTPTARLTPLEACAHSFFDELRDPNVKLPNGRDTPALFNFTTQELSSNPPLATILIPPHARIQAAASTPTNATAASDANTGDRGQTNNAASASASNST
pIC50: −log10 of the molar value.

Answered examples (3):
CC1(C)CC(=O)C2=C(C1)NC1N=NC(CCC(F)(F)F)=C1[C@@]21CCc2c(F)cccc21 (some centres undefined) [US20250313563, Compound 874323]: 5.30 to 6.00
O=C1CC(C(F)(F)F)CC2=C1C1(CCOCC1)C1=C(N=NC1)N2 (centres undefined) [US20250313563, Compound 889572]: 6.00 to 7.00
CC[C@@]1(c2cccc(-c3ccnc(C)c3)c2)C2=C(CC(C)(C)NC2=O)NC2N=NC(F)=C21 (some centres undefined) [US20250313563, Compound 949012]: 6.00 to 7.00

// moving on: another record for pIC50
Provide the documented pIC50 with Glycogen synthase kinase-3 beta (Homo sapiens, UniProt P49841) as the system for CC[C@@]1(c2cccc(C(F)(F)F)c2)C2=CN=NC2NC2=C1C(=O)N[C@H](C)C2 (some centres undefined) [US20250313563, Compound 912098]
6.00 to 7.00

---

- system: Glycogen synthase kinase-3 alpha (Homo sapiens)
pIC50: −log10 of the molar value.
Measured pIC50, listed per entry for reference.

Answered examples (4):
CCC1(c2cccc(C(F)(F)F)c2)C2=CN=NC2NC2=C1C(=O)NCC2C (stereo not drawn) [US20250313563, Compound 919318]: > 7.00
O=C1CC(c2ccccc2)CC2=C1C1(CCOCC1)C1=C(N=NC1)N2 (stereo not drawn) [US20250313563, Compound 893309]: 6.00 to 7.00
CC(C)CC(=O)N1CC2(C1)CC1(CO2)C2=C(N=NC2)NC2=C1C(=O)CC(C)(C)C2 (stereo not drawn) [US20250313563, Compound 947302]: > 7.00
CC1(C)CC(=O)C2=C(C1)NC1=C(CN=N1)[C@]21C[C@H](n2cccn2)C1 [US20250313563, Compound 884005]: > 7.00

Provide the documented pIC50 with Glycogen synthase kinase-3 alpha (Homo sapiens) as the system for CC[C@]1(c2cccc(-c3ccnc(C)c3)c2)C2=CN=NC2NC2=C1C(=O)N[C@@H](C)C2 (stereo partly drawn) [US20250313563, Compound 926299]
5.30 to 6.00

Provide the documented pIC50 with Glycogen synthase kinase-3 alpha (Homo sapiens) as the system for CC[C@@]1(c2cccc(-c3cnn4c3CCCC4)c2)C2=C(CC(C)(C)NC2=O)NC2N=NC(C(F)(F)F)=C21 (stereo partly drawn) [US20250313563, Compound 948775]
> 7.00

Provide the documented pIC50 with Glycogen synthase kinase-3 alpha (Homo sapiens) as the system for CC[C@@]1(c2cccc(C3=CN=NC3)c2)C2=C(CC(C)(C)NC2=O)NC2N=NC(C(F)(F)F)=C21 (stereo partly drawn) [US20250313563, Compound 948312]
> 7.00

Provide the documented pIC50 with Glycogen synthase kinase-3 alpha (Homo sapiens) as the system for CC[C@@]1(c2cccc(C(F)(F)F)c2)C2=CN=NC2NC2=C1C(=O)N(c1cnc(OC)nc1)CC2 (stereo partly drawn) [US20250313563, Compound 949127]
5.30 to 6.00

Provide the documented pIC50 with Glycogen synthase kinase-3 alpha (Homo sapiens) as the system for CC[C@@]1(c2cccc(N(C)c3nccc(C)n3)c2)C2=CN=NC2NC2=C1C(=O)CC(C)(C)C2 (stereo partly drawn) [US20250313563, Compound 945329]
6.00 to 7.00
